target: recombinant human VISTA protein (Homo sapiens, UniProt Q9H7M9); assay: Inhibition of VISTA interaction: rescue of IFN-γ release in human PBMC (ELISA); conditions: 72 h, read-out: IC50 (VISTA interaction inhibitory activity)
Sequence (Q9H7M9 with tags, fused parts or gaps limits assumed): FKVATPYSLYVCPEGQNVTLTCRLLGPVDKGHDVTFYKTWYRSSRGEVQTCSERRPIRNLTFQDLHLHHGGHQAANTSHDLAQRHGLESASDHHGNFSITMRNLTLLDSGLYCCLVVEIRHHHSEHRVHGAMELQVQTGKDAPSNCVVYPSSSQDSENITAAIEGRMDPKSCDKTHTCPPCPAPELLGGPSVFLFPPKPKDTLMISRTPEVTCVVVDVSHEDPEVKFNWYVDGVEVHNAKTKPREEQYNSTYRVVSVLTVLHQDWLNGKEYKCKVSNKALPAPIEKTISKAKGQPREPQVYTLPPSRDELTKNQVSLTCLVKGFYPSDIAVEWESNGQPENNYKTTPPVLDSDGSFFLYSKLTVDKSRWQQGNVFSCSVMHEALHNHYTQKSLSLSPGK
Measured quantity: IC50

Some compounds with known IC50 results, for comparison:
CC(=O)NCCNCc1cccc(-c2nc3cc(C)ccc3[nH]2)c1 [Compound 34] :: 1 to 100 nM
CC(=O)NCCNCc1cccc(-c2cc3ccccn3c2)c1 [Compound 43] :: 100 to 1000 nM
Cc1c(-c2ccccc2)ccc2[nH]c(-c3cccc(OCc4ccccc4)c3)nc12 [Compound 20] :: 1 to 100 nM
Cc1c(-c2ccccc2)ccc2[nH]c(-c3cccc(OCc4cccnc4)c3)nc12 [Compound 21] :: 100 to 1000 nM
Cc1c(-c2ccccc2)ccc2nc(-c3cccc(CNCCN)c3)[nH]c12 [Compound 7] :: 1 to 100 nM

Okay, now this compound:
Quick check: IC50 of CC(=O)NCCNCc1cccc(-c2nc3c(O)cccc3[nH]2)c1 [Compound 59] ? 1 to 100 nM

* * *

target: recombinant human VISTA protein (Homo sapiens, UniProt Q9H7M9); assay: Inhibition of VISTA interaction: rescue of IFN-γ release in human PBMC (ELISA); settings: 72 h, read-out: IC50 (VISTA interaction inhibitory activity)
Below, each entry is listed with its recorded IC50.

Solved entries (count: 3):
CC(=O)NCCNCc1cccc(-c2nc3cc(-c4ccco4)ccc3[nH]2)c1 :: 100 to 1000 nM
Cc1c(-c2ccccc2)ccc2[nH]c(-c3cccc(CN[C@H](CO)C(=O)O)c3)nc12 :: 1 to 100 nM
Cc1c(-c2ccccc2)ccc2nc(-c3cccc(CNCC(=O)O)c3)[nH]c12 :: 100 to 1000 nM

Give the measured IC50 of CC(=O)NCCNCc1cccc(-c2nc3c(O)c(O)ccc3[nH]2)c1 . 1 to 100 nM

What would you report for CC(=O)NCCNCc1cccc(-c2nc3c(C#N)c(-c4ccccc4)ccc3[nH]2)c1 ? 1 to 100 nM

And COc1c(-c2ccccc2)ccc2[nH]c(-c3cccc(CNCCNC(C)=O)c3)nc12 ? 1 to 100 nM

Quick one: CC(=O)NCCNCc1cccc(-c2nc3c(O)c(-c4ccccc4)ccc3[nH]2)c1 100 to 1000 nM

Moving on to the next compound: CC(=O)NCCNCc1cccc(-c2nc3ccc(Br)c(C)c3[nH]2)c1 1 to 100 nM

Repeat for the following compound: CC(=O)NCCNCc1cccc(-c2nc3c(Br)c(-c4ccccc4)ccc3[nH]2)c1 1 to 100 nM

Next record, please: CC(=O)NCCNCc1cccc(-c2nc3cc(-c4ccccc4)ccc3[nH]2)c1 1 to 100 nM

And for Cc1c(-c2ccccc2)ccc2[nH]c(-c3cccc(OCCNCCO)c3)nc12 ? 100 to 1000 nM

Please do the same for Cc1c(-c2ccccc2)ccc2nc(-c3ccc(CNCCO)cc3)cn12 as well. 100 to 1000 nM

Similarly, CC(=O)NCCNCc1cccc(-c2cc3ccncn3c2)c1 ? 1 to 100 nM
